# ASSAY INFO: Circular dichroism (CD), secondary structure of aggregates
# Type: physicochemical
# Set-up: key: β+: has minimum near 217 nm; β++: has minimum near 217 nm and a maximum near 197 nm; −: signal too weak to interpret; ?: spectra not typical of any secondary structure
# DETAILS: pH 7.3; pellet (25,000 g, 10 min) resuspended ~100 μg/ml in 10 mM HEPES pH 7.3, crude peptide
ATTRIBUTE MEASURED: CD spectrum class

Ac-YVAVHVHV-NH2 [Peptide 27, Ac-YVAVHVHV-CONH2] :: β+
Ac-YVHVSVHV-NH2 [Peptide 10, Ac-YVHVSVHV-CONH2] :: β+
Ac-YVHVHVDV-NH2 [Peptide 21, Ac-YVHVHVDV-CONH2] :: β+
Ac-YVDVHVDV-NH2 [Peptide 25, Ac-YVDVHVDV-CONH2] :: −

With those in mind, consider the next substance.
Report CD spectrum class for Ac-YVSVSVHV-NH2 [Peptide 12, Ac-YVSVSVHV-CONH2] please.
β++

----------
The substances listed here are annotated with their ThT, fold increase in ThT fluorescence over background.
# ASSAY INFO: Thioflavin T fluorescence (ThT)
# Assay type: physicochemical
# DETAILS: pH 4.0, 50 mM NaOAc, crude peptide fibrillized at 160 μM, mixed 10:1 with 50 μM ThT, ex 440 nm em 480 nm
Response body: numeric value in fold, unit text excluded.

Observe how each entry below is paired with its result.
Ac-YVHVAVHV-NH2 [Peptide 28, Ac-YVHVAVHV-CONH2] :: 1
Ac-YVHVHVHV-NH2 [Peptide 8, Ac-YVHVHVHV-CONH2] :: 1
Ac-YVDVHVDV-NH2 [Peptide 25, Ac-YVDVHVDV-CONH2] :: 9
Ac-YVAVHVHV-NH2 [Peptide 27, Ac-YVAVHVHV-CONH2] :: 1
Ac-YVSVSVHV-NH2 [Peptide 12, Ac-YVSVSVHV-CONH2] :: 5
Ac-YVHVSVHV-NH2 [Peptide 10, Ac-YVHVSVHV-CONH2] :: 1

Report ThT, fold increase in ThT fluorescence over background for Ac-YVHVHVSV-NH2 [Peptide 11, Ac-YVHVHVSV-CONH2] please.
1

Also check Ac-YVHVHVDV-NH2 [Peptide 21, Ac-YVHVHVDV-CONH2]
1

Also check Ac-YVSVHVHV-NH2 [Peptide 9, Ac-YVSVHVHV-CONH2]
1

----------
# ASSAY INFO: ATR-FTIR, amide I peak of aggregates
# Type: physicochemical
# Design: key: indicates that no peak was observed within the typical range of stretching frequencies forβ-structure (between dashed lines at 1638 cm−1 and 1615 cm−1)
# DETAILS: pH 4.0 (50 mM NaOAc), air-dried pellet, crude peptide
ATTRIBUTE MEASURED: FTIR peak position in amide I region

Observe how each entry below is paired with its result.
Ac-YVHVSVHV-NH2 [Peptide 10, Ac-YVHVSVHV-CONH2] :: −
Ac-YVSVSVHV-NH2 [Peptide 12, Ac-YVSVSVHV-CONH2] :: 1621 cm⁻¹
Ac-YVHVHVDV-NH2 [Peptide 21, Ac-YVHVHVDV-CONH2] :: −
Ac-YVHVAVHV-NH2 [Peptide 28, Ac-YVHVAVHV-CONH2] :: −
Ac-YVHVHVHV-NH2 [Peptide 8, Ac-YVHVHVHV-CONH2] :: −

Report FTIR peak position in amide I region for Ac-YVAVHVHV-NH2 [Peptide 27, Ac-YVAVHVHV-CONH2] please.
−

Also check Ac-YVSVHVHV-NH2 [Peptide 9, Ac-YVSVHVHV-CONH2]
−

Also check Ac-YVDVHVDV-NH2 [Peptide 25, Ac-YVDVHVDV-CONH2]
1623 cm⁻¹

Also check Ac-YVHVHVSV-NH2 [Peptide 11, Ac-YVHVHVSV-CONH2]
−

----------
# ASSAY INFO: Transmission electron microscopy (TEM) of fibrils
# Type: physicochemical
# Parameters: key: +: ﬁbrils present; −: absent in EM micrographs
# DETAILS: pH 4.0, 50 mM NaOAc, uranyl acetate stain
ATTRIBUTE MEASURED: EM, fibrils in EM micrographs

Ac-YVDVHVDV-NH2 [Peptide 25, Ac-YVDVHVDV-CONH2] :: +
Ac-YVHVHVDV-NH2 [Peptide 21, Ac-YVHVHVDV-CONH2] :: +
Ac-YVSVSVHV-NH2 [Peptide 12, Ac-YVSVSVHV-CONH2] :: +
Ac-YVHVHVHV-NH2 [Peptide 8, Ac-YVHVHVHV-CONH2] :: −

----------
# ASSAY INFO: Circular dichroism (CD), secondary structure of aggregates
# Type: physicochemical
# Set-up: key: β+: has minimum near 217 nm; β++: has minimum near 217 nm and a maximum near 197 nm; −: signal too weak to interpret; ?: spectra not typical of any secondary structure
# DETAILS: pH 7.3; pellet (25,000 g, 10 min) resuspended ~100 μg/ml in 10 mM HEPES pH 7.3, crude peptide
ATTRIBUTE MEASURED: CD spectrum class

Ac-YVHVHVHV-NH2 [Peptide 8, Ac-YVHVHVHV-CONH2] :: β+
Ac-YVSVHVHV-NH2 [Peptide 9, Ac-YVSVHVHV-CONH2] :: β++
Ac-YVHVAVHV-NH2 [Peptide 28, Ac-YVHVAVHV-CONH2] :: β+
Ac-YVHVHVSV-NH2 [Peptide 11, Ac-YVHVHVSV-CONH2] :: β++

----------
The substances listed here are annotated with their FTIR peak position in amide I region.
# ASSAY INFO: ATR-FTIR, amide I peak of aggregates
# Format: physicochemical
# DETAILS: pH 7.3 (50 mM HEPES), air-dried pellet, crude peptide
Response body: numeric value in cm⁻¹, unit text excluded.

Ac-YVHVHVDV-NH2 [Peptide 21, Ac-YVHVHVDV-CONH2] :: 1626

Report FTIR peak position in amide I region for Ac-YVSVSVHV-NH2 [Peptide 12, Ac-YVSVSVHV-CONH2] please.
1623

Also check Ac-YVHVHVSV-NH2 [Peptide 11, Ac-YVHVHVSV-CONH2]
1624

----------
# ASSAY INFO: ATR-FTIR, amide I peak of aggregates
# Type: physicochemical
# DETAILS: pH 7.3 (50 mM HEPES), air-dried pellet, crude peptide
ATTRIBUTE MEASURED: FTIR peak position in amide I region

Ac-YVHVAVHV-NH2 [Peptide 28, Ac-YVHVAVHV-CONH2] :: 1624 cm⁻¹
Ac-YVDVHVDV-NH2 [Peptide 25, Ac-YVDVHVDV-CONH2] :: −
Ac-YVAVHVHV-NH2 [Peptide 27, Ac-YVAVHVHV-CONH2] :: 1625 cm⁻¹
Ac-YVHVSVHV-NH2 [Peptide 10, Ac-YVHVSVHV-CONH2] :: 1623 cm⁻¹

Report FTIR peak position in amide I region for Ac-YVHVHVHV-NH2 [Peptide 8, Ac-YVHVHVHV-CONH2] please.
1627 cm⁻¹

Also check Ac-YVSVHVHV-NH2 [Peptide 9, Ac-YVSVHVHV-CONH2]
1624 cm⁻¹
